assay.info: AUClast in mouse at 60 mg/kg, po
Format: ADME, organism-based
Design: dose 60 mg/kg, time 0 - last, route oral
condition.info: in vivo
assay.metric: AUC(0-t) (ng·h/mL)
Report the value in ng·h/mL with no unit label.

[in] Provide one value: measured AUC(0-t) of CCCCc1nc(C(C)C)c(CC(=S)N2CCCC2)c(=O)n1Cc1ccc(-c2ccccc2-c2noc(=O)[nH]2)cc1
[out] 2570

====

assay.info: AUClast in rat at 10 mg/kg, po
Assay type: ADME, organism-based
Design: dose 10 mg/kg, route oral, time 0 - last
condition.info: in vivo
assay.metric: AUC(0-t) (ng·h/mL)
Express it in ng·h/mL; write the number only.

[in] Report measured AUC(0-t); entry is CCCCc1nc(C)c(CC(=S)N(C)C)c(=O)n1Cc1ccc(-c2ccccc2-c2nnn[nH]2)cc1 [FIMASARTAN]
[out] 1930

====

measurement.target: Voltage-gated inwardly rectifying potassium channel KCNH2 (Homo sapiens)
Sequence (Q12809 whole entry): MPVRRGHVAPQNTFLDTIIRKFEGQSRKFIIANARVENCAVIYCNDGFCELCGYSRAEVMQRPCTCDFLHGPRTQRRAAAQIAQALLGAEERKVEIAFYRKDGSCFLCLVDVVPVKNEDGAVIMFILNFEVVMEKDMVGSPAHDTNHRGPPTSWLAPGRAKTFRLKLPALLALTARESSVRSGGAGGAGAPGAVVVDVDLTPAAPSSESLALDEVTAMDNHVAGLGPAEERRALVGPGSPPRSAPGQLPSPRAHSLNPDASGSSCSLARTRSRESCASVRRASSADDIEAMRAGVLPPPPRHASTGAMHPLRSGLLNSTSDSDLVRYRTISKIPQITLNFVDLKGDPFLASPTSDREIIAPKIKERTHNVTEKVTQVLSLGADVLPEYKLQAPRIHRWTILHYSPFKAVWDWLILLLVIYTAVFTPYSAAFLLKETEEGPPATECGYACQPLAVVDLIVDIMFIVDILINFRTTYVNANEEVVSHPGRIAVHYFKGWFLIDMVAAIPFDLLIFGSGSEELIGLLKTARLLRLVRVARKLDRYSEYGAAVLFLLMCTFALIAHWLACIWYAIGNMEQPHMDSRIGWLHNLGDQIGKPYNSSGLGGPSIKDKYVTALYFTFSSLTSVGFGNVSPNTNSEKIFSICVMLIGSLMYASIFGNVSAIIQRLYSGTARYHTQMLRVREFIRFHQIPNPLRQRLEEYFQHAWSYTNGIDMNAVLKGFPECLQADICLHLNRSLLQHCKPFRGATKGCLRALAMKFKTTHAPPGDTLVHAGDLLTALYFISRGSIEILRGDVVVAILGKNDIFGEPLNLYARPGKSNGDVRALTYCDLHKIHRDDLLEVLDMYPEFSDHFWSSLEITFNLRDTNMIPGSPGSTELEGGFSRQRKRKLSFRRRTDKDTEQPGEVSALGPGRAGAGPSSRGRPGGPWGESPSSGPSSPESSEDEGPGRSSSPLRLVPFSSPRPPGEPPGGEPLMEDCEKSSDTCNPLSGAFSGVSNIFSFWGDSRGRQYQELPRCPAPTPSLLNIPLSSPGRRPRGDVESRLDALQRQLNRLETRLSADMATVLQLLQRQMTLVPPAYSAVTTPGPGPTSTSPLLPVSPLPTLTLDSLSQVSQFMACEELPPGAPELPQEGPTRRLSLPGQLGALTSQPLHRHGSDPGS
assay.metric: IC50 (µM)
Record the value in µM, omitting the unit from your answer.

[in] Print Voltage-gated inwardly rectifying potassium channel KCNH2 (Homo sapiens) IC50 for CCCCc1nc(C(C)C)c(CC(=S)N2CCCC2)c(=O)n1Cc1ccc(-c2ccccc2-c2noc(=O)[nH]2)cc1 .
[out] 7

====

assay.info: Half life in rat at 10 mg/kg, po
Assay type: ADME, organism-based
condition.info: in vivo
assay.metric: half-life (min)
Field format: number, assumed min, no unit text.

[in] Quickly give me recorded half-life for CCCCc1nc(C)c(CC(=S)N(C)C)c(=O)n1Cc1ccc(-c2ccccc2-c2nnn[nH]2)cc1
[out] 216

====

Give measured Activity for each item. Keep answers brief.
measurement.target: Peroxisome proliferator-activated receptor gamma (Homo sapiens)
assay.info: Agonist activity at PPARgamma (unknown origin) at 1 uM relative to telmisartan
Note to self: number, then unit, no commentary.

[in] Report measured Activity on Peroxisome proliferator-activated receptor gamma (Homo sapiens); entry: CCCCc1nc(C(C)C)c(CC(=S)N2CCCC2)c(=O)n1Cc1ccc(-c2ccccc2-c2noc(=O)[nH]2)cc1
[out] 156%

[in] // fetch Activity; item: CCCCc1nc(C)c(CC(=S)N(C)C(C)C)c(=O)n1Cc1ccc(-c2ccccc2-c2noc(=O)[nH]2)cc1 ; system: Peroxisome proliferator-activated receptor gamma (Homo sapiens)
[out] 106%

[in] GET Activity | system: Peroxisome proliferator-activated receptor gamma (Homo sapiens) | item: CCCCc1nc(C)c(CC(=S)N(C)CC(C)C)c(=O)n1Cc1ccc(-c2ccccc2-c2noc(=O)[nH]2)cc1
[out] 122%

[in] Specify Activity for CCCCc1nc(C)c(CC(=S)N2CCCCC2)c(=O)n1Cc1ccc(-c2ccccc2-c2noc(=O)[nH]2)cc1 , system Peroxisome proliferator-activated receptor gamma (Homo sapiens).
[out] 116%

====

assay.info: AUClast in rat at 60 mg/kg, po
Type: ADME, organism-based
Design: dose 60 mg/kg, time 0 - last, route oral
condition.info: in vivo
assay.metric: AUC(0-t) (µg·h/mL)
Reply numerically in µg·h/mL, unit not repeated.

[in] Please supply the value of reported AUC(0-t) for the item CCCCc1nc(C(C)C)c(CC(=S)N2CCCC2)c(=O)n1Cc1ccc(-c2ccccc2-c2noc(=O)[nH]2)cc1
[out] 13.3

====

assay.info: Half life in mouse at 60 mg/kg, po
Type: ADME, organism-based
condition.info: in vivo
assay.metric: half-life (h)
Please reply with the bare figure in h and do not write the unit itself.

[in] Find the measured half-life of CCCCc1nc(C(C)C)c(CC(=S)N2CCCC2)c(=O)n1Cc1ccc(-c2ccccc2-c2noc(=O)[nH]2)cc1 and report it.
[out] 3.67

Source: ChEMBL document CHEMBL4265900
